These entries and their values trace back to paper PMC7822874.

Test system: Plasmodium falciparum Dd2 asexual blood stage parasites
assayRemarks: microbe, parasite or virus in culture
Set-up: species or system Plasmodium falciparum Dd2 in human erythrocytes; single determination (one 11-point concentration-response curve)
conditionDescription: Plasmodium falciparum, DD2, Erythrocyte, 72 h
Exam item: assign criterion met to entries whose AC50 is below 5 µM and criterion not met to entries at or above 5 µM. Note that a value of exactly 5 µM receives criterion not met.

Solved cases (4 shown):
In [3]: df
Out[3]:
                                   compound          classname
0  Cc1ccc(C(=O)Nc2cccc(NC(=O)c3ccc(C)c([N+](=O)[O-])c3)n2)cc1[N+](=O)[O-] [MLS001195117-01]  criterion not met
1  O=C(CC[S+](=O)([O-])c1cc(Br)cc2c1N(C(=O)C1CC1)CC2)Nc1ccc(C(F)(F)F)cc1 [NCGC00107224-01]      criterion met
2  Oc1cc2c(cc1CN1CCN(c3ccccc3)CC1)CCC2 [MLS000058156-01]      criterion met
3  CC(C)(C)c1ccc(O)c(CN2CCN(c3ccccc3)CC2)c1 [MLS000084717-01]      criterion met

Confirm or reject: AC50 of CCC1(OC(=O)CN)C(=O)OCc2c1cc1n(c2=O)Cc2cc3ccccc3nc2-1 (centres unmarked) [MLS000766263-01] lies strictly below 5 µM
criterion not met

Proceed to Cc1ccccc1[S+](=O)([O-])N1CCCC(CCC(=O)NCCN(C)C2CCCCC2)C1 (centres unmarked) [NCGC00425745-01]
criterion not met

Proceed to Cc1ccc(C)c(OCCn2cc(C(=O)c3ccco3)c3ccccc32)c1 [NCGC00101856-01]
criterion not met

Proceed to Cc1cccc(OC(C)C(=O)NCC2(N(C)C)CCCCC2)c1C (centres unmarked) [NCGC00118727-01]
criterion not met

---

assayRemarks: in vitro
conditionDescription: human, HepG2-A16-CD81EGFP cells, uninfected
experimentalReadout: viability at 48 h, 1 µM
The answer should read as a number with its unit following.

Examples from the recorded data:
>>> df
                                   compound  value
0  COc1cc(O)c(C(CCN2CCCC(C)C2)c2ccc(N(C)C)cc2)c(OC)c1 (centres unmarked) [MLS000879516-01]   110%
1  COc1ccc(C2=C(Nc3ccc(C)cc3)c3ccccc3C2=O)cc1 [MLS000563980-01]    96%
2  O=C(Nc1ccc2c(N3CCCC3)ncnc2c1)c1cccc(F)c1 [NCGC00425501-01]  98.5%
3  CCOC(=O)C1(Cc2ccccc2Cl)CCNCC1 [NCGC00430911-01]  94.6%
4  Cc1cc(N2CCN(C)CC2)nc2ccc(NC(=O)c3ccc(Br)o3)cc12 [MLS000086536-01]   104%
5  O[C@H]1CC[C@@H](Cc2cc(-c3ccc(F)cc3)on2)O[C@@H]1CNC1CCCCC1 [NCGC00401034-01]   104%

Give its viability at 48 h, 1 µM value. Item: COc1cc(O)c(C(CCN2CCCCC2)c2ccc3c(c2)OCO3)c(OC)c1 (centres unmarked) [MLS000879495-01]
113%

Proceed to CCCc1cc(=O)oc2cc(C)cc(OCC(=O)Nc3ccccn3)c12 [MLS001160382-01]
97%

Proceed to CCOC(=O)c1c(C)[nH]c(C(=O)CSc2nnc(C3CC3)n2N)c1C [MLS000536141-01]
92%

Proceed to O=C(Nc1cccc(-c2nc3ccccc3[nH]2)c1)c1ccc(C(=O)Nc2cccc(-c3nc4ccccc4[nH]3)c2)cc1 [MLS000766212-01]
105%

---

assayRemarks: in vitro
conditionDescription: human, hepg2-a16-cd81egfp cells, % viability
Below is a list of entries, each paired with its recorded viability at 3 µM value.
The reply should be a number in %, with the unit left off.

compound	value
C=C[C@]1(C)C[C@@H](OC(=O)CSC(C)(C)CNC(=O)[C@H](N)C(C)C)[C@]2(C)[C@H](C)CC[C@]3(CCC(=O)[C@H]32)[C@@H](C)[C@@H]1O [NCGC00167968]	87.5
Cc1ccc(-[n+]2c(-c3ccc(Cl)cc3)cn3c2CCC3)cc1 [MLS000780005]	90.4
Nc1nonc1-n1nnc(C(=O)N/N=C/c2ccc(Br)cc2)c1-c1ccc2c(c1)OCO2 [MLS001142619]	89.5
Cc1ccc(-c2cc(C(=O)Nc3ccc(S(=O)(=O)N4CC(C)OC(C)C4)cc3)[nH]n2)c(O)c1 (stereo not shown) [MLS000779230]	89.2
Cc1cc(N2CCN(C3CCCC3)CC2)n2c(nc3ccccc32)c1C#N [MLS000039270]	89.8
O=C(Nc1ccc(C2=NCCN2)cc1)c1ccc(C(=O)Nc2ccc(C3=NCCN3)cc2)c(Cl)c1 [MLS000737368]	90

Give its viability at 3 µM value. Item: N#Cc1c(N2CCN(c3ccc(F)cc3)CC2)nc(N)c2c(N)nc3c(c12)CC(=O)N3C1CC1 [MLS001003889]
89.7

---

Below is a list of entries, each paired with its recorded viability at 48 h, 1 µM value.
assayRemarks: in vitro
conditionDescription: human, HepG2-A16-CD81EGFP cells, uninfected
The reply should be a number in %, with the unit left off.

Examples from the recorded data:
>>> df
                                 compound  value
0  COc1cc2nc(Nc3ccc(C)c(C)c3)nc(N)c2cc1OC    107
1       Cc1ccc(NN=C2C=CC(=O)c3ncccc32)cc1     93
2   c1ccc(CNc2nc(-c3ccccn3)nc3ccccc23)cc1     93

Give its viability at 48 h, 1 µM value. Item: COc1ccccc1C1c2[nH]c3ccccc3c2C[C@H]2C(=O)N(C3CCN(Cc4ccccc4)CC3)CC(=O)N12 (some centres unmarked)
87

Proceed to `Cc1ccc(C(=O)Nc2nc(-c3ccccn3)cs2)cc1S(=O)(=O)N1CCOCC1`
92

Proceed to `COc1ccc(Nc2cnc3ccc(-c4ccc(OC)c(OC)c4)nn23)cc1`
101

Proceed to `O=C1C(Nc2ccccc2)=C/C(=N\S(=O)(=O)c2cccs2)c2ccccc21`
101

Proceed to `CCN1CCN(Cc2ccc(NC(=O)c3cc(NC(=O)c4cnn(-c5ccccc5)c4N)cc(OC)c3)cc2C(F)(F)F)CC1`
98

Proceed to `Oc1c2c(nc3ccc(Br)cc13)CCCC2`
100

Proceed to `CCOC(=O)c1nc2cc3n(c(CC(C)C)c-2c1C)CC(C)=C3C`
108

Proceed to `O=C(NC1CC1)c1ccc(CSCc2ccccc2Cl)o1`
111

---

Test system: Plasmodium falciparum Dd2-attB (parental line), asexual blood stages
Construct: Dd2-attB, the isogenic parental line
assayRemarks: microbe, parasite or virus in culture
Design: replicate k of 3 (each line is one of three independent assays; the three lines of one compound and parasite line follow each other)
conditionDescription: 72 h; n = 1
experimentalReadout: Individual replicates / Log AC50 (M)

>>> print(df.to_string())
                          structurenotation                 value
0  COc1ccc(NC(=O)CN2C(=O)CCn3nc(-c4cccn4C)cc32)cc1Cl  -4.9986 Log AC50 (M)

Give its Individual replicates / Log AC50 (M) value. Item: `CCCN1C(CC(C)C)=N[S+](=O)([O-])c2cc(NC(=O)C3CC3)ccc21`
-5.8486 Log AC50 (M)

Proceed to `Oc1ccc(CNc2cccc(F)c2F)c2cccnc12`
-4.7486 Log AC50 (M)

---

assayRemarks: in vitro
conditionDescription: human, HepG2-A16-CD81EGFP cells, uninfected
Below is a list of entries, each paired with its recorded viability at 66 h value.
The reply should be a number in %, with the unit left off.

Examples from the recorded data:
>>> print(df.to_string())
                                   compound  value
0  O=S(=O)(c1ccccc1)c1nnn2c1nc(NC1CCN(Cc3ccccc3)CC1)c1cc(Cl)ccc12    101
1  O=S(=O)(c1ccc(F)cc1)N1CCN(/C(S)=N/Cc2ccco2)CC1    103
2             N=c1ccn(Cc2ccc(Cl)c(Cl)c2)cc1   99.6
3      CN(C)c1cc[n+](CC(=O)c2ccc(Br)cc2)cc1    103
4  Cc1ccccc1C(=O)NC(CC(C)C)C(=O)OCC(=O)c1c(N)n(C)c(=O)n(C)c1=O (stereo not shown)    106
5  Cc1ccc(CN(C)C(=O)c2cc(COc3ccc(F)cc3Cl)on2)o1    101
6  Cc1ccc(NC(=O)CC[S+](=O)([O-])c2cc(Br)cc3c2N(C(=O)C2CC2)CC3)cc1    101
7                 N=c1ccn(Cc2ccc(Cl)cc2)cc1    101

Give its viability at 66 h value. Item: `CCCCN(CC)CCNC(=O)c1cc2c(-c3ccc(Cl)cc3)nn(C)c2s1`
102

Proceed to `CN(C)c1cc[n+](Cc2ccccc2)cc1`
96.5

Proceed to `COc1ccc(-c2c(C)nn3c(N)c(C#N)cnc23)cc1OC`
108

Proceed to `C#CCN1c2ccccc2Sc2cccnc21`
99.6

Proceed to `CC(=O)N(C)C1=C(N2CCOCC2)C(=O)c2ccccc2C1=O`
92.5

Proceed to `Oc1ccc(Cl)cc1CNCc1ccc(C(F)(F)F)cc1`
109

Proceed to `OCCNc1nc(Nc2ccc(Br)cc2)nc2ccccc12`
97

Proceed to CCN(CC)CCC(c1ccc(OC)cc1)c1c(O)cc(OC)cc1OC (stereo not shown)
99.6
